Listing: T/C of selected compounds
# Test system: L1210 leukemia ip in BDF1 mice, survival T/C
# PROTOCOL: NCI In Vivo Anticancer Drug Screen. Data for tumor model L1210 Leukemia (intraperitoneal) in B6D2F1 (BDF1) mice
# MEASUREMENT SETUP: endpoint: mean survival time; dose: 25.0 mg/kg/injection; schedule: Q04DX003 (ip); vehicle: saline; higher = longer survival
Inconclusive results and toxic doses are left out.

Some entries whose results are on file:
# returns recorded T/C (system: L1210 leukemia ip in BDF1 mice, survival T/C) for `C=CCN(C(=O)OCC)P(=O)(OCC)OCC` 106 % of control

Record `C=CCNP(=O)(OCC)OCC` : what is its T/C with L1210 leukemia ip in BDF1 mice, survival T/C? 104 % of control

---
Any idea what T/C came out for NC(Cc1cn(Cc2ccccc2)cn1)C(=O)O (stereo not given) on L1210 leukemia ip in BDF1 mice, survival T/C? 89 % of control

Return T/C measured with L1210 leukemia ip in BDF1 mice, survival T/C given this compound: `CCOC(=O)C(=O)c1c(C)[nH]c(C(=O)OCC)c1C` 104 % of control

Give L1210 leukemia ip in BDF1 mice, survival T/C T/C for `Cc1cc(=O)c2cccc(-c3ccccc3)c2[nH]1` 101 % of control

Give T/C (L1210 leukemia ip in BDF1 mice, survival T/C) of the following compound: `FC(F)(F)c1ccc2c(c1)N(CCCN1CCN(CCOCCCl)CC1)c1ccccc1S2` 122 % of control

Request: T/C, test system L1210 leukemia ip in BDF1 mice, survival T/C, entry `NC(CCl)=NCc1ccccc1` 90 % of control

Form entry - test system: L1210 leukemia ip in BDF1 mice, survival T/C; read-out: T/C; compound: CC(CN(C)C)CN1c2ccccc2Sc2ccc(C(F)(F)F)cc21 (stereo not given) 109 % of control

So what T/C did `CC(C)OCc1c(N)nc(=S)[nH]c1C(=O)O` get with L1210 leukemia ip in BDF1 mice, survival T/C? 106 % of control

Short answer please: T/C, L1210 leukemia ip in BDF1 mice, survival T/C, entry `CC(C)NNC(=O)c1ccncc1` 107 % of control

Write down the reported T/C of O=C1NC(=O)C2C3CCC(C3)C12 (stereo not given) , test system: L1210 leukemia ip in BDF1 mice, survival T/C. 102 % of control

Give recorded T/C with L1210 leukemia ip in BDF1 mice, survival T/C for the following compound: `CCOCC(C#N)C#N` 99 % of control

Recall the recorded T/C for `CC(C)(C)C(=O)C#Cc1ccccc1` with L1210 leukemia ip in BDF1 mice, survival T/C and state it. 102 % of control

Request - read-out T/C | tested on L1210 leukemia ip in BDF1 mice, survival T/C | compound `COc1ccc2c(C(=O)N(CCCl)CCCl)cc3cc(OC)c(OC)cc3c2c1` 116 % of control

Find T/C (L1210 leukemia ip in BDF1 mice, survival T/C) for the entry `Cc1cc[n+](Cc2ccccc2)cc1` 90 % of control

These data points were gathered from PubChem BioAssay AID248.
